# assayMethodText: Dissociation constant, pKa by pyridinium/pyridine equilibrium
# Type: physicochemical
readoutType: pKa
Give bare numbers.

Here are 10 compounds together with their reported answers.
1) CS(=O)(=O)Nc1ccncc1Oc1ccc(Cl)cc1 : 7.97
2) CS(=O)(=O)Nc1ccncc1Oc1ccccc1 : 8.13
3) CS(=O)(=O)Nc1ccncc1Oc1ccc(Br)cc1 : 7.86
4) O=S(=O)(Nc1ccncc1Oc1ccc(Cl)cc1)C(F)(F)F : 6.71
5) CCS(=O)(=O)Nc1ccncc1Oc1ccc(Cl)cc1 : 7.98
6) CS(=O)(=O)Nc1ccncc1Oc1cccc(Cl)c1 : 7.74
7) O=S(=O)(Nc1ccncc1[S+]([O-])c1ccccc1)C(F)(F)F (stereo unspecified) : 5.69
8) O=S(=O)(Nc1ccncc1Sc1ccccc1)C(F)(F)F : 6.54
9) O=S(=O)(c1ccccc1)c1cnccc1NS(=O)(=O)C(F)(F)F : 5.3
10) O=S(=O)(Nc1ccncc1Oc1ccccc1)C(F)(F)F : 6.81

Consider now this further compound.
For this compound ( CS(=O)(=O)Nc1ccncc1Oc1ccc(Cl)cc1Cl ), measured pKa is 7.81
